The measured values listed here are drawn from ChEMBL document CHEMBL4184210.

test system: Escherichia coli; assay: Antimicrobial activity against Escherichia coli expressing beta-lactamase KPC-2 by CLSI broth microdilution method; assay type: functional
MEASURED_ATTRIBUTE: MIC (µg/mL)
Please state the figure in µg/mL; there is no need to write the unit.

Exam item: Sample CC(C)(O/N=C(\C(=O)N[C@@H]1C(=O)N(S(=O)(=O)O)[C@@H]1CN1CCNC1=O)c1csc(N)n1)C(=O)O (stereo in doubt) — what was its MIC?
Marked response: 1

As a next step, examine the molecule that follows.
Exam item: # query: MIC of entry CC(C)(O/N=C(\C(=O)N[C@@H]1C(=O)N(S(=O)(=O)O)[C@@H]1Cn1ccnn1)c1csc(N)n1)C(=O)O (stereo in doubt)
Marked response: 2

----------
system: Escherichia coli; test: microbe, parasite or virus in culture
Description: Antimicrobial activity against Escherichia coli expressing beta-lactamase TEM-10 by CLSI broth microdilution method
MEASURED_ATTRIBUTE: log10(MIC) (log10 of the value in µg/mL)
Please interpret these as log10 of MIC where MIC is in µg/mL.

Solved cases (3 shown):
Exam item: Can you share its log10(MIC)? I mean this molecule: N=C(N)NCc1cn(C[C@@H]2[C@H](NC(=O)/C(=N\OC3(C(=O)O)CC3)c3csc(N)n3)C(=O)N2S(=O)(=O)O)nn1 (stereo in doubt)
Marked response: -0.30

Exam item: Returns the measured log10(MIC) for the input molecule. Input: C[C@@H](O)[C@H]1C(=O)N2C(C(=O)O)=C(SCCNC=N)C[C@H]12 [IMIPENEM ANHYDROUS]
Marked response: -0.60

Exam item: Return reported log10(MIC); argument: CC(C)(O/N=C(\C(=O)N[C@@H]1C(=O)N(S(=O)(=O)O)[C@@H]1Cn1cc(CCN)nn1)c1csc(N)n1)C(=O)O (stereo in doubt)
Marked response: 0.30

---
Exam item: Name the reported log10(MIC) value associated with the molecule Cc1ncnn1C[C@@H]1[C@H](NC(=O)/C(=N\OC(C)(C)C(=O)O)c2csc(N)n2)C(=O)N1S(=O)(=O)O (stereo in doubt)
Marked response: 0.90

Exam item: Any idea what log10(MIC) was measured for C[C@@H](O/N=C(\C(=O)N[C@@H]1C(=O)N(S(=O)(=O)O)[C@@H]1Cn1cncn1)c1csc(N)n1)C(=O)O (stereo in doubt) ?
Marked response: 0.00

----------
// reported MIC for each item listed
tested on: Escherichia coli; assay: microbe, parasite or virus in culture
Description: Antimicrobial activity against wild type Escherichia coli by CLSI broth microdilution method
Number in µg/mL, nothing else.

Exam item: Please give the measured MIC for this compound: CC(C)(O/N=C(\C(=O)N[C@@H]1C(=O)N(S(=O)(=O)O)[C@@H]1CNC(=O)CN)c1csc(N)n1)C(=O)O (stereo in doubt)
Marked response: 0.25

---
Exam item: Field request: MIC | item: CC(C)(O/N=C(\C(=O)N[C@@H]1C(=O)N(S(=O)(=O)O)[C@@H]1Cn1ccnn1)c1csc(N)n1)C(=O)O (stereo in doubt)
Marked response: 0.5

Exam item: Given the entry CC(C)(O/N=C(\C(=O)N[C@@H]1C(=O)N(S(=O)(=O)O)[C@@H]1CN1CCCCC1=O)c1csc(N)n1)C(=O)O (stereo in doubt) , report its measured MIC.
Marked response: 4

Exam item: What measured MIC goes with CC(C)(O/N=C(\C(=O)N[C@@H]1C(=O)N(S(=O)(=O)O)[C@@H]1CN1CCC1=O)c1csc(N)n1)C(=O)O (stereo in doubt) ?
Marked response: 2

Exam item: Please give the measured MIC for this compound: CC(C)(O/N=C(/C(=O)N[C@@H]1C(=O)N(OS(=O)(=O)O)C1(C)C)c1csc(N)n1)C(=O)O (stereo in doubt)
Marked response: 0.25

Exam item: Can you look up the measured MIC of CC(C)(O/N=C(\C(=O)N[C@@H]1C(=O)N(S(=O)(=O)O)[C@@H]1Cn1cc(CO)nn1)c1csc(N)n1)C(=O)O (stereo in doubt) for me?
Marked response: 0.5

Exam item: Entry Nc1nc(/C(=N/OC2(C(=O)O)CCC2)C(=O)N[C@@H]2C(=O)N(S(=O)(=O)O)[C@@H]2Cn2cncn2)cs1 (stereo in doubt) has what MIC?
Marked response: 1
